- Tested on: Trypanosoma brucei brucei
- assay_method_text: Antitrypanosomal activity against wild type bloodstream form of Trypanosoma brucei brucei assessed as inhibition of parasite growth after 3 days by resazurin assay
- Format: functional, organism-based
- setup_conditions: 72 h
property: pIC50
API: returns pIC50 as number; meaning -log10 of concentration in mol/L.

Q. Find the measured pIC50: item O=C(CN1CCN(c2ccccn2)CC1)Nc1ncc([N+](=O)[O-])s1 , target or system Trypanosoma brucei brucei.
A. 4.67
